The measurements presented in this section are drawn from paper PMC6271157.

biological target: acetylcholinesterase (AChE) (electric eel, UniProt O42275 24-633); assay: ELONA; selection buffer, ionic strength ~0.15 M, 137 mM NaCl, 4 mM MgCl2; 8 mM Na2HPO4, 2 mM NaH2PO4, 2.7 mM KCl, 137 mM NaCl, 4 mM MgCl2, pH 7.4, room temperature, 2 h; wells coated with 10 nM AChE, blocked with 1% BSA; washes with 0.05% Tween 20; settings: protein: native; label: 5'-biotin, detected by streptavidin-HRP
Sequence (O42275 24-633): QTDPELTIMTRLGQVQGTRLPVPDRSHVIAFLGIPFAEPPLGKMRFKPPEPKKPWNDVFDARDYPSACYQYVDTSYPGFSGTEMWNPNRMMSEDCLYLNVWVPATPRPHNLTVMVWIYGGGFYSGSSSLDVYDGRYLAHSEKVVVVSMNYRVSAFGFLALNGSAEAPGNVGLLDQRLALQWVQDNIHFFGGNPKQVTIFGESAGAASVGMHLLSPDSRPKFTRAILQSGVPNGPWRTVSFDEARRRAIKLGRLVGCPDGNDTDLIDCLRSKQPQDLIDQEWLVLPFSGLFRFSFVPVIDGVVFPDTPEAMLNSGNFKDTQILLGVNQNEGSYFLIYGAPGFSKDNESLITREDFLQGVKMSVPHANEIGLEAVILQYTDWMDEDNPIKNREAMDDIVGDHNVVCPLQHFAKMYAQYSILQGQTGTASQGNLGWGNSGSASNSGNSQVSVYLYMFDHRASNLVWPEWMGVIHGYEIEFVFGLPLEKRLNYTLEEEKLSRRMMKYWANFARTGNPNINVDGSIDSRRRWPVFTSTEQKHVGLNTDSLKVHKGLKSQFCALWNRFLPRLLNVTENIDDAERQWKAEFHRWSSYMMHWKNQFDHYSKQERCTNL
QUANTITY NAME: pKd
Answers are plain numbers, as −log10 of the molar value.

Req: Please look at this binder and report its pKd: R15/19 (also R15/C19) (ssDNA, 5'-biotin (ELONA)) DNA: AAGCATCCGCTGGTTGACTGTAGCTCTGGCAGACGTAGTGTGAAGGTACCAGCTATTGGGATCTTGGACCCTGCGAA
Resp: 9.80
